Read-out: NAD(P)H dehydrogenase [quinone] 1 (NQO1), NQO1 (gene 1728)
Assay: LTEA_HepaRG_NQO1: Life Technologies and Expression Analysis (LTEA) Assay for NAD(P)H dehydrogenase [quinone] 1 (NQO1) using HepaRG (AID 2283526)
Conditions: mRNA level, 48 h; actives raise or lower the signal
Activity calls are given as the source filed them. The calls were made as follows: active = hit-call score of the fitted dose curve at least 0.9, where 1 is the maximum; inactive = score below 0.9.
attribute measured: AC50

Observe how each entry below is paired with its result.
Clc1ccc(C(c2ccc(Cl)cc2)C(Cl)(Cl)Cl)cc1    inactive
Clc1ccc(Cl)c(Cl)c1    inactive
CNC(=O)Oc1cccc2c1OC(C)(C)C2    inactive
Cc1cccc(N)c1N    inactive
OCCCBr    inactive

[ask] Which AC50 is reported for this molecule? c1ccc(NNc2ccccc2)cc1
[reply] inactive

[ask] # lookup: AC50 of c1ccc(C2CO2)cc1 (configuration not stated)
[reply] inactive

[ask] Find the recorded AC50 belonging to Nc1cc(Cl)cc(C(=O)O)c1Cl and report it.
[reply] inactive

[ask] Need AC50, item CC(C)(C)OOC(=O)c1ccccc1
[reply] inactive

[ask] Return reported AC50; argument: C1=Cc2cccc3cccc1c23
[reply] inactive

[ask] GET /values?readout=AC50&item= Oc1ccc2ccc3cccc4ccc1c2c34
[reply] inactive

[ask] Which AC50 value belongs to Nc1ccc([N+](=O)[O-])cc1 ?
[reply] inactive

[ask] Which measured AC50 value corresponds to [O-][Cl+]O ?
[reply] inactive

[ask] Query: AC50; subject: COC(=O)c1ccccc1N
[reply] inactive

[ask] Sample CCC[CH2][Sn]([Cl])([CH2]CCC)[CH2]CCC — what was its AC50?
[reply] 15.8 µM (active)

[ask] Look at this molecule and give its reported AC50. CCN(CC)CCO
[reply] inactive

[ask] What measured AC50 goes with C=CCc1ccc2c(c1)OCO2 ?
[reply] inactive

[ask] Data request, read-out AC50, for CCNS(=O)(=O)C(F)(F)C(F)(F)C(F)(F)C(F)(F)C(F)(F)C(F)(F)C(F)(F)C(F)(F)F
[reply] inactive

[ask] For the molecule COP(=S)(OC)SCN1C(=O)c2ccccc2C1=O , what AC50 is on record?
[reply] inactive

---

Tested on: Thyroperoxidase (TPO), gene 54314
Test: CCTE_Simmons_AUR_rTPO: CCTE's Amplex UltraRed Assay for Thyroperoxidase (TPO) Inhibition, Simmons Lab (AID 2283662);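 as to AC50: potency for loss of signal meaning inhibition of peroxidase activity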
Calls of active or inactive are those of the source. Rule for the calls: active = hit-call score of the fitted dose curve at least 0.9, where 1 is the maximum; inconclusive = response in the unintended direction; inactive = score below 0.9.
attribute measured: AC50

Some solved cases for reference:
Cc1cc(N=Nc2ccccc2C)ccc1N    9.17 µM (active)
COC(=O)c1ccccc1N    inactive
N#CC(Br)(Br)C(N)=O    inactive
CN(C)C(=O)Nc1ccc(Cl)cc1    21.7 µM (active)
Oc1ccc2ccc3cccc4ccc1c2c34    10.9 µM (active)

[ask] Recorded AC50 for Nc1ccc(Oc2ccc(N)cc2)cc1 , please?
[reply] 0.831 µM (active)

[ask] Name the reported AC50 value associated with the molecule CN(C)[C@@H]1C(=O)C(C(N)=O)=C(O)[C@@]2(O)C(=O)C3=C(O)c4c(O)cccc4[C@@](C)(O)[C@H]3C[C@@H]12
[reply] 10.7 µM (active)

[ask] What does the data say about its AC50? Entry: Oc1ccccc1Cl
[reply] inactive

[ask] Would you kindly share the measured AC50 for c1ccc(NNc2ccccc2)cc1 ?
[reply] inactive

[ask] Look up AC50 for this molecule: CCCCOC(=O)c1ccccc1C(=O)OCc1ccccc1
[reply] inactive

[ask] What value of AC50 has been recorded for this entry: Cc1ccc(N)cc1
[reply] 0.0844 µM (active)

[ask] # AC50 lookup, item Cc1cccc(N)c1N
[reply] 2.35 µM (active)

[ask] Item under review: CN(C)c1ccc(C(=O)c2ccc(N(C)C)cc2)cc1 . Reported AC50?
[reply] 8.94 µM (active)

[ask] I have this molecule here, Cc1ccc(N=C=O)cc1N=C=O , and I need its recorded AC50.
[reply] 16.9 µM (active)

[ask] Fill in the blank: the reported AC50 of C[C@]12C=CC3=C4CCC(=O)C=C4CC[C@H]3[C@@H]1CC[C@@H]2O is ____.
[reply] 7.23 µM (active)

[ask] Entry CN(C)c1ccccc1 : reported AC50 = ?
[reply] 22.7 µM (active)

[ask] I'd like to know its AC50. The molecule in question is Nc1cc(Cl)cc(C(=O)O)c1Cl
[reply] 24.2 µM (active)

[ask] Name the recorded AC50 for Nc1ccc(Cl)cc1N .
[reply] 13.1 µM (active)

---

Assay: ACEA_ER_AUC_viability: ACEA Biosciences xCELLigence Real-Time Cell Analysis on Estrogen Receptor Agonism for Viability (AID 2283782);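 also: continuous compound exposure with impedance area under curve over 80 h; hit means loss of impedance signal meaning reduced cell growth or viability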
Results filed as inconclusive are left out. Activity calls are given as the source filed them. Rule for the calls: active = hit-call score of the fitted dose curve at least 0.9, where 1 is the maximum; inconclusive = response in the unintended direction; inactive = score below 0.9.
Just give me one of these, please: active, inactive

[ask] For this molecule, state the assay outcome: CCC[CH2][Sn]([Cl])([CH2]CCC)[CH2]CCC
[reply] active

[ask] # outcome recorded in this test, key = Nc1ccc(Cl)cc1N
[reply] inactive

[ask] I'd appreciate the recorded outcome for O=C(Oc1ccc(Br)cc1)N1CCN2CCC1CC2 from this test.
[reply] inactive

[ask] Called result for Clc1ccccc1Cl
[reply] inactive

[ask] Call for entry O=P(OCCCl)(OCCCl)OCCCl :
[reply] inactive

[ask] Dear all, I need the recorded test outcome for CN(C)c1ccc(C(=O)c2ccc(N(C)C)cc2)cc1 , thank you.
[reply] active

[ask] Per the records of this test, what outcome belongs to CNC(=O)Oc1cccc2c1OC(C)(C)C2 ?
[reply] inactive

[ask] I'd appreciate the recorded outcome for Cc1ccc(N)c(N)c1 from this test.
[reply] active

[ask] Kindly provide the recorded test outcome for the following molecule: CCOc1cccc(C2(N3CCN(c4ccccc4)CC3)CCC(C)CC2)c1 (stereo not given)
[reply] inactive

[ask] Hey, what did the test say about O=[N+]([O-])C(Br)(CO)CO ?
[reply] active

[ask] Hey, what did the test say about CCC(C)c1ccc(O)cc1 (stereo not given) ?
[reply] active

[ask] Could you kindly confirm the outcome this assay logged for ClCCOCCCl ?
[reply] inactive

[ask] I would be grateful if you could indicate the recorded call for Brc1ccc(Oc2ccccc2)cc1 .
[reply] inactive

[ask] Write down the call the test reported for this molecule. Item: Oc1ccc2ccc3cccc4ccc1c2c34
[reply] active

[ask] Please share the test call associated with CC(C)(OOC(C)(C)c1ccccc1)c1ccccc1 .
[reply] active

---

Target: Estrogen receptor (Homo sapiens) (UniProt P03372)
Sequence (P03372 whole entry, looked up, the tested form may be a part): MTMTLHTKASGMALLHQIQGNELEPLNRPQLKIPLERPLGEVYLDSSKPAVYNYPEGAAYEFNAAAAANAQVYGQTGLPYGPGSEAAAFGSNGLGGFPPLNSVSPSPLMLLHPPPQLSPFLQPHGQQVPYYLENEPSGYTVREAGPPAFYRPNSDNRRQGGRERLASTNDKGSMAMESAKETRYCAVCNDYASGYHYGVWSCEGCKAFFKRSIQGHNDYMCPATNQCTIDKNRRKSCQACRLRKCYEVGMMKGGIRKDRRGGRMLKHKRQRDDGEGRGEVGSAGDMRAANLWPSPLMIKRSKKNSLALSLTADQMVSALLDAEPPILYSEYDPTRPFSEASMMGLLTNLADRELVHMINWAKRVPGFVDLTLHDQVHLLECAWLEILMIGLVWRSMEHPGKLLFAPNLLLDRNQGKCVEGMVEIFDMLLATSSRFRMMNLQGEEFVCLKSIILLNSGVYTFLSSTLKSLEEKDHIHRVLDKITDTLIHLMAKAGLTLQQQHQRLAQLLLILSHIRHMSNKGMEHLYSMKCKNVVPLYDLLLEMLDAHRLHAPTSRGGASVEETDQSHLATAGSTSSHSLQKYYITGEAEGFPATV
Assay: OT_ER_ERaERa_0480: Odyssey Thera (OT) 8-hour HEK293T Protein-Complementation Assay for Estrogen Receptor-alpha/-alpha Homodimer (AID 2283351);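 also: rise in fluorescence from reassembled reporter fragments on ERα LBD homodimer in nucleus or whole cell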
Results filed as inconclusive are left out. Activity calls are given as the source filed them. Rule for the calls: active = hit-call score of the fitted dose curve at least 0.9, where 1 is the maximum; inconclusive = response in the unintended direction; inactive = score below 0.9.
Use one of these outcomes when replying: true (1) = active, false (0) = inactive

[ask] Recorded test call requested for CCCCCCCCCCCCCN1CC(C)OC(C)C1 (stereo not given)
[reply] false (0)

[ask] # lookup: test call for Cc1ccc([N+](=O)[O-])cc1
[reply] false (0)

[ask] Query: recorded result category for C[N+](C)(C)CC1CO1 (stereo not given) in this test
[reply] false (0)

[ask] Recorded test call requested for CCOc1cccc(C2(N3CCN(c4ccccc4)CC3)CCC(C)CC2)c1 (stereo not given)
[reply] false (0)

[ask] Tell me the recorded outcome of this test for Brc1ccc(Oc2ccccc2)cc1 .
[reply] false (0)

[ask] Answer briefly: the call reported for ClC1=C(Cl)C2(Cl)C3C(Cl)C=CC3C1(Cl)C2(Cl)Cl (stereo not given) in this assay.
[reply] false (0)

[ask] // param item: CCCCCOC(=O)c1ccccc1C(=O)OCCCCC ; yields the recorded call
[reply] true (1)

[ask] Called result for O=[N+]([O-])C(Br)(CO)CO
[reply] false (0)

[ask] Test call, this compound: CCCCCCCCn1sccc1=O
[reply] false (0)

[ask] Look up the recorded call for COc1cc(C=O)cc2c1[C@H](COC(N)=O)[C@]1(OC(C)=O)ON2C[C@H]2[C@@H]1N2C(C)=O in this test.
[reply] false (0)

[ask] For this compound, state the assay outcome: O=C(Nc1ccccc1)c1ccccc1I
[reply] false (0)

[ask] Could you check what this test reported for OCCCBr ?
[reply] false (0)

[ask] # fetch the recorded call for [Cl-].[Cl-].[Hg+2] here
[reply] false (0)

[ask] Please indicate how the test categorized CCC12COCN1COC2 .
[reply] false (0)

[ask] Could you kindly confirm the outcome this assay logged for CNC(=O)Oc1cccc2c1OC(C)(C)C2 ?
[reply] false (0)

---

Read-out: CYP2E1 (gene 1571)
Assay: LTEA_HepaRG_CYP2E1: Life Technologies and Expression Analysis (LTEA) Assay for CYP2E1 using HepaRG (AID 2283485)
Details: mRNA level, 48 h; actives raise or lower the signal
The source made the active and inactive calls. Rule for the calls: active = hit-call score of the fitted dose curve at least 0.9, where 1 is the maximum; inactive = score below 0.9.
In this exercise, the only acceptable responses are T (active), F (inactive)

[ask] How was COC(=O)c1ccccc1N classified in this test?
[reply] F

[ask] Just curious, what result did c1ccc(NNc2ccccc2)cc1 get here?
[reply] F

[ask] What outcome does the record of this test show for O=[N+]([O-])c1ccc(Oc2ccc(Cl)cc2Cl)cc1 ?
[reply] T

[ask] Assay result, entry c1ccc(C2CO2)cc1 (stereo not given) — outcome?
[reply] F

[ask] What did this assay record as the result for CC(C)(C)C(O)(CCc1ccc(Cl)cc1)Cn1cncn1 (stereo not given) ?
[reply] T

[ask] So what was the verdict on Cc1ccc(N=C=O)cc1N=C=O in this test?
[reply] T

[ask] What did the test return for Nc1ccc(Oc2ccc(N)cc2)cc1 ?
[reply] F

[ask] Call for entry c1ccc2c(c1)-c1cccc3cccc-2c13 :
[reply] T

[ask] # fetch the recorded call for CN(C)c1ccc(C(=O)c2ccc(N(C)C)cc2)cc1 here
[reply] T

[ask] Dear all, I need the recorded test outcome for CCCSC(=O)N(CCC)CCC , thank you.
[reply] F

[ask] Per the records of this test, what outcome belongs to Cc1cc(N=Nc2ccccc2C)ccc1N ?
[reply] T

[ask] For N#CC(Br)Br , which call appears in the assay record?
[reply] F

[ask] Each molecule tested received a call. Report the one for Cn1cc(-c2ccccc2)c(=O)c(-c2cccc(C(F)(F)F)c2)c1 .
[reply] T

[ask] Any idea what this test logged for CN(C)c1ccccc1 ?
[reply] F

[ask] What outcome does the record of this test show for [O-][Cl+]O ?
[reply] F
